Consider the following compounds; for each one, report its change in vivo at 50 mg/kg.
test system: Hyperlipidemic Hamster; assay: In Vivo Assay of Hypolipidemic Agents Using the Hyperlipidemic Hamster; details: Mesocricetus auratus, po, 168 h, 50 mg/kg once daily oral, 7 days; percent change versus control, negative = lowering; read-out: % Reduction (in vivo) Cholest. Esters
Give bare numbers, in %.

Consider the following illustrative entries.
{"columns": ["compound", "change in vivo at 50 mg/kg (%)"],
 "data": [
  ["COc1ccc(N2C(=O)[C@H](CCCc3ccccc3)[C@@H]2c2ccnc3ccccc23)cc1 (relative stereo) [Example 1BX]", 0],
  ["CCCOc1ccc([C@@H]2[C@@H](CCCc3ccccc3)C(=O)N2c2ccc(OC)cc2)cc1 (relative stereo) [Example 7P]", -95],
  ["COc1ccc([C@@H]2[C@@H](CCCCCCc3ccccc3)C(=O)N2c2ccc(OC)cc2)cc1 (relative stereo) [Example 5Y]", 0],
  ["COc1ccc(N2C(=O)[C@H](CCCc3ccccc3)[C@@H]2c2cccs2)cc1 (relative stereo) [Example 1BI]", -45],
  ["COc1ccc(N2C(=O)[C@@H](CCCc3ccccc3)[C@@H]2c2ccc(CO)cc2)cc1 (relative stereo) [Example 15]", -46]
]}

Consider the following items and state reported change in vivo at 50 mg/kg for each.
1. COc1ccc(N2C(=O)[C@H](CCCc3ccccc3)[C@@H]2c2ccco2)cc1 (relative stereo) [Example 1BC]
2. CC[C@@]1(CCCc2ccccc2)C(=O)N(c2ccc(OC)cc2)[C@H]1c1ccccc1 (relative stereo) [Example 3A]

Reply:
[0, -29]
